Tested on: SK-MEL-2 melanoma
EXPERIMENT_SUMMARY: NCI-60 one-dose screen, 48 h
SETUP_CONDITIONS: 10 µM
This is part of a sample that, as a whole, favours compounds with a hit. Of some 83,000 tested, about 20% had one in any assay. Calls of active or inactive are those of the source. How the source made its calls: active means growth percent below 10; inactive means the rest.
The reply should name one outcome from active, inactive

Record excerpt, results attached:
> print(dat)
                            chemical.string  label.value
1  O=C(CCCSc1nc(-c2ccccc2)cc(-c2ccc(Cl)cc2)n1)NO     inactive
2             O=C1CSC(=S)N1/N=C/c1ccc(Cl)s1     inactive
3  Nc1ccc(CC[C@H]2CCC/C=C/[C@@H]3C[C@H](O)C[C@H]3[C@H](O)/C=C/C(=O)O2)cc1       active
4  Cc1[nH]c2ccccc2c1/C=N/Nc1ncnc2sc3c(c12)CCN(CC(=O)OC(C)(C)C)C3     inactive

Req: Tell me the recorded outcome of this test for `CNS(=O)(=O)Oc1ccc(-c2ccc3occc3c2)cc1` .
Resp: inactive

---

System: OVCAR-4 ovarian
EXPERIMENT_SUMMARY: NCI-60 one-dose screen, 48 h (100 = growth as untreated, 0 = no growth, -100 = all killed)
SETUP_CONDITIONS: 10 µM
The panel holds about 83,000 compounds, 20% with a hit somewhere; the sample as a whole holds those more often.
MEASURED_QUANTITY: growth (%)
Response body: numeric value in %, unit text excluded.

MOLECULE	OBSERVED_MEASUREMENT
CN(C)CCOc1cccc(NC2=C(Cl)C(=O)C(Nc3cccc(OCCN(C)C)c3)=C(Cl)C2=O)c1	-100

Req: Identify measured growth corresponding to `Cc1ccc(-c2c3c(N)nc(-c4cccnc4)nc3nc3c2c(C)nn3-c2ccccc2)cc1`
Resp: 50.8

---

Test system: TK-10 renal
EXPERIMENT_SUMMARY: NCI-60 one-dose screen, 48 h (100 = growth as untreated, 0 = no growth, -100 = all killed)
SETUP_CONDITIONS: 10 µM
About 83,000 compounds went through this panel and 20% of them were active in at least one assay; those are over-represented in the sample as a whole.
In this section we review reported growth values for a set of compounds.
Response body: numeric value in %, unit text excluded.

Here are 5 compounds together with their reported answers.
COMPOUND	MEASURED_QUANTITY	UNITS_OF_MEASURE	OBSERVED_MEASUREMENT
Cc1ccc(S(=O)(=O)N(C)CCCCCC(=O)O)cc1	growth	%	89.4
O=C(CCCSc1nc(-c2ccc(Cl)cc2)cc(-c2ccc(Cl)cc2)n1)NO	growth	%	24.3
Oc1ccc(-c2[nH]c3ccccc3c2-c2nc3ccccc3o2)cc1	growth	%	84.8
CCC(c1ccc(OC)cc1)C(CC)c1ccc(O)c(CN2CCN(C)CC2)c1 (stereo not drawn)	growth	%	72.2
CCOC(=O)CN(c1sc(C)c(C)c1C(=O)OCC)S(=O)(=O)c1ccc(C)cc1	growth	%	121

Req: Identify measured growth corresponding to COc1cc(CNC(=O)C2CSC3(C)c4ccccc4C(=O)N23)cc(OC)c1OC (stereo not drawn)
Resp: 102

Req: Identify measured growth corresponding to `COc1ccc(Cc2cnc(N)nc2N)cc1OC`
Resp: 110

Req: Identify measured growth corresponding to `Nc1cc(-c2ccc(Cl)cc2)nn1-c1nc2ccccc2nc1Cc1ccccc1`
Resp: 99.2

Req: Identify measured growth corresponding to `CNC(=O)c1cc(Oc2ccc3c(c2)sc2nc(-c4ccc(N)cc4)cn23)ccn1`
Resp: 57.4

Req: Identify measured growth corresponding to `O=C(Nc1ccc(F)cc1)c1cc2ccccc2cc1O`
Resp: 141

Req: Identify measured growth corresponding to `N#CCc1csc(Cc2ccccc2)n1`
Resp: 89.9

Req: Identify measured growth corresponding to CC[C@@H](C(=O)[C@@H](C)[C@@H](O)[C@H](C)[C@@H]1O[C@@H]([C@@H](CC)C(=O)O)CC[C@@H]1C)C1O[C@]2(C=CC(=O)[C@]3(CC[C@@](C)([C@H]4CC[C@](O)(CC)[C@H](C)O4)O3)O2)[C@H](C)C[C@@H]1C (stereo partly drawn)
Resp: 57.7

Req: Identify measured growth corresponding to CC(=O)[C@@]12O[C@](C)(c3ccccc3)O[C@@H]1CC1C3CCC4=CC(=O)CC[C@]4(C)C3CC[C@@]12C (stereo partly drawn)
Resp: 88.2

Req: Identify measured growth corresponding to `O=C1/C=C/[C@@H](O)[C@@H]2C[C@@H](O)C[C@H]2/C=C/CCC[C@@H](C(F)(F)F)O1`
Resp: 73.7

Req: Identify measured growth corresponding to `CCNc1nc(C(F)(F)F)nc2c1sc(=S)n2-c1ccccc1`
Resp: 88.8

---

In this section we review reported growth values for a set of molecules.
System: MCF7 breast
EXPERIMENT_SUMMARY: NCI-60 one-dose screen, 48 h (100 = growth as untreated, 0 = no growth, -100 = all killed)
SETUP_CONDITIONS: 10 µM
About 83,000 compounds went through this panel and 20% of them were active in at least one assay; those are over-represented in the sample as a whole.
Response body: numeric value in %, unit text excluded.

> print(dat)
                                   molecule  measured.quantity  observed.measurement
1  CC(C)(C)OC(=O)CN1CCc2c(sc3ncnc(N/N=C/c4ccccc4Br)c23)C1             growth                  3.49
2   Cc1ccc(S(=O)(=O)N/N=C2\CCCc3ccccc32)cc1             growth                  92.1

Req: Identify measured growth corresponding to `Oc1ccc(-c2[nH]c3ccccc3c2-c2nc3ccccc3o2)cc1`
Resp: 24.1

Req: Identify measured growth corresponding to `CN1CCc2c(sc3nc4n(-c5ccc(Cl)cc5)c(=O)[nH]n4c(=O)c23)C1`
Resp: 91.7

Req: Identify measured growth corresponding to COC1=CC(=O)OC(c2ccc(OC)cc2)C1 (stereo unspecified)
Resp: 99.8

Req: Identify measured growth corresponding to `Nc1ccn(Cc2nnc(CCC(=O)c3nc4ccccc4[nH]3)o2)c(=O)n1`
Resp: 35.7

Req: Identify measured growth corresponding to `Cc1c[nH]c(=O)n(Cc2nnc(CCC(=O)c3nc4ccccc4[nH]3)o2)c1=O`
Resp: 9.44

Req: Identify measured growth corresponding to `CCc1ccc(-c2ccc(-n3nc(C)c4c(N)nc(Cc5ccccc5)nc43)cc2)cc1`
Resp: 58.1

Req: Identify measured growth corresponding to `O=C1c2ccccc2C(=O)c2c1ccc(C(Br)Br)c2Cl`
Resp: 2.06

Req: Identify measured growth corresponding to `COc1cc(N)c2ncccc2c1SC`
Resp: 104

Req: Identify measured growth corresponding to `CN1CCN(C2=Nc3ccccc3Oc3ccc(Cl)cc32)CC1`
Resp: 97.4

---

Test system: RXF 393 renal
EXPERIMENT_SUMMARY: NCI-60 one-dose screen, 48 h (100 = growth as untreated, 0 = no growth, -100 = all killed)
SETUP_CONDITIONS: 10 µM
About 83,000 compounds went through this panel and 20% of them were active in at least one assay; those are over-represented in the sample as a whole.
MEASURED_QUANTITY: growth (%)
Response body: numeric value in %, unit text excluded.

COMPOUND	MEASURED_QUANTITY	OBSERVED_MEASUREMENT
Clc1nc2ccc(Br)cc2cc1-c1nc2ccccc2[nH]1	growth	10.6
O=C1/C=C/[C@@H](O)[C@@H]2C[C@@H](O)C[C@H]2/C=C/CCC[C@@H](C(F)(F)F)O1	growth	42.7
O=C1/C(=C/c2cccc(F)c2)Cc2ccccc21	growth	99.4
COc1ccc(C(=O)c2cc3c(OC)c(OC)c(OC)cc3[nH]2)cc1	growth	72

Req: Identify measured growth corresponding to `COc1ccc(-c2nn(-c3cccc(Cl)c3)cc2-c2c(C#N)c(N)n(N)c(=O)c2C#N)cc1`
Resp: 65.3

Req: Identify measured growth corresponding to `Cc1c(Cl)cccc1NC(=O)CCCl`
Resp: 112

Req: Identify measured growth corresponding to `CNC(=O)c1c(I)c(NC(C)=O)c(I)c(C(=O)O)c1I`
Resp: 115

---

In this section we review reported growth values for a set of compounds.
Tested on: SF-268 CNS
EXPERIMENT_SUMMARY: NCI-60 one-dose screen, 48 h (100 = growth as untreated, 0 = no growth, -100 = all killed)
SETUP_CONDITIONS: 10 µM
About 83,000 compounds went through this panel and 20% of them were active in at least one assay; those are over-represented in the sample as a whole.
Response body: numeric value in %, unit text excluded.

Req: Identify measured growth corresponding to `COc1cc(-c2nn(-c3cccc(NC(=O)CN4CCOCC4)c3)cc2-c2cccnc2)ccc1Cl`
Resp: 85.4

Req: Identify measured growth corresponding to `O=C1c2ccccc2C(=O)c2c1ccc(C(Br)Br)c2Cl`
Resp: -19.1

Req: Identify measured growth corresponding to `CC(=O)/C(=C/c1ccc(Br)cc1)C(=O)c1ccccc1`
Resp: 67.4

Req: Identify measured growth corresponding to `CC(C)C[C@H](NC(=O)Cn1cccc(CNC(=O)c2ccccc2)c1=O)B(O)O`
Resp: -19.5

Req: Identify measured growth corresponding to `Cc1c2c[n+](C(C)C)ccc2c(C)c2c1[nH]c1ccccc12`
Resp: 15.3

Req: Identify measured growth corresponding to CCOC(=O)C1=CSC2=NC3=C(CCC/C3=C\c3ccc(Cl)cc3)C(c3ccc(Cl)cc3)N12 (stereo unspecified)
Resp: 90.8

Req: Identify measured growth corresponding to `CCOC(=O)c1cc(C(=O)c2ccc(F)cc2F)n2ccccc12`
Resp: 85.7

Req: Identify measured growth corresponding to COc1ccc(C(c2ccc(OCCN(C)C)cc2)c2cc3ccccc3c3ccccc23)cc1 (stereo unspecified)
Resp: 67.3

Req: Identify measured growth corresponding to CCC(c1ccc(OC)cc1)C(CC)c1ccc(O)c(CN2CCN(C)CC2)c1 (stereo unspecified)
Resp: 80.6

Req: Identify measured growth corresponding to `COc1ccc(Cc2cnc(N)nc2N)cc1OC`
Resp: 106

Req: Identify measured growth corresponding to `CN(C)c1nc(N)c2nccnc2n1`
Resp: 101
